- Procedure details: solvent given as SMILES
- Test parameters: in C1CCCCC1
emission maximum values, listed per item
Measure name: emission maximum (nm)

>>> readout_value("CN(C)c1ccc2c3c(ccc2c1)C(=O)CCC3")
407
>>> readout_value("CCN(CC)c1ccc2c(C)cc(=O)oc2c1")
395
>>> readout_value("C(=C\\c1nc2ccccc2s1)/c1ccccc1")
390

====

- Procedure details: solvent given as SMILES
- Test parameters: in CN(C)C=O
emission maximum values, listed per item
Measure name: emission maximum (nm)

>>> readout_value("CCCCCCCCC1(CCCCCCCC)c2cc(-c3ccc([N+](=O)[O-])cc3)ccc2-c2ccc(-c3ccc([N+](=O)[O-])cc3)cc21")
569
>>> readout_value("CC1=CC(C)=[N+]2C1=Cc1c3ccccc3c(C#Cc3ccccc3)n1[B-]2(F)F")
624
>>> readout_value("NCCCCCCCCCCCCN1C(=O)c2ccc3c4ccc5c6c(ccc(c7ccc(c2c37)C1=O)c64)C(=O)NC5=O")
534
>>> readout_value("CN(C)c1ccc2cc3c(cc2c1)OCCN=C3")
442
>>> readout_value("COc1ccc2cc(-c3ccc(C(F)(F)F)cc3)oc(=O)c2c1")
411
>>> readout_value("N#CC(C#N)=C(/C=C/c1cc2c3c(c1)CCCN3CCC2)c1ccc2c3c(cccc13)CC2")
629
>>> readout_value("NNC(=O)c1ccc(/C=C/c2ccc(C(=O)NN)cc2)cc1")
395
>>> readout_value("CC1=CC(C)=[N+]2C1=C(c1ccc(-c3c4ccccc4c(-c4ccccc4)c4ccccc34)cc1)c1c(C)cc(C)n1[B-]2(F)F")
510
>>> readout_value("CCN(CC)c1ccc(-c2nc(Oc3ccc(-c4nc5ccccc5s4)cc3)nc(Oc3ccc(-c4nc5ccccc5s4)cc3)n2)cc1")
419
>>> readout_value("CCOC(=O)c1sc(SC)c2c(=O)[nH]nnc12")
478
>>> readout_value("CCC1=C(C)C2=C(C)c3c(C)c(CC)c(C)n3[B-](F)(F)[N+]2=C1C")
532.8
>>> readout_value("CSc1sc(C(N)=O)c2nnn(C)c(=O)c12")
514
>>> readout_value("CCC1=C(C)C2=C(c3c4ccccc4cc4ccccc34)c3c(C)c(CC)c(C)n3[B-](F)(F)[N+]2=C1C")
541
>>> readout_value("CC(=O)c1ccc2ccc3c(NCCC(=O)NCCCCCCc4nc5c(=O)[nH]c(N)nc5n4[C@H]4C[C@H](O)[C@@H](CO)O4)ccc4ccc1c2c43")
543
>>> readout_value("CN(C)c1ccc(-c2cc3c(ccc4c([N+](=O)[O-])cccc43)c(=O)o2)cc1")
546
>>> readout_value("COc1c2ccccc2c(-c2ccccc2)c2ccccc12")
426
>>> readout_value("CCN(CC)c1cccc2c1ccc1c(=O)oc(-c3ccc(C(F)(F)F)cc3)cc12")
613
>>> readout_value("N#CC(C#N)=C(/C=C/c1cn(-c2ccccc2)nc1-c1ccccc1)c1ccccc1")
504
>>> readout_value("Cc1ccc([C@@H]2C[C@](O)(c3ccccn3)C[C@](O)(c3ccccn3)[C@H]2C(=O)c2ccc(N(c3ccccc3)c3ccccc3)cc2)cc1")
523
>>> readout_value("CN(C)c1ccc2nc(/C=C/c3ccccc3)c(=O)oc2c1")
571
>>> readout_value("Nc1ccc2cc(-c3ccc(C(F)(F)F)cc3)oc(=O)c2c1")
448
>>> readout_value("Cc1nc2cccc(-c3nc4ccccc4[nH]3)c2c(=O)[nH]1")
441
>>> readout_value("CC1=CC(C)=[N+]2C1=C(c1c3ccccc3c(C)c3ccccc13)c1c(C)cc(C)n1[B-]2(F)F")
519
>>> readout_value("Cc1cc(=O)c2ccc(N)cc2o1")
408
>>> readout_value("c1ccc(-c2nc(-c3ccccc3)nc(-c3ccc(-n4c5ccc(-c6ccc7sc8ccccc8c7c6)cc5c5cc(-c6ccc7sc8ccccc8c7c6)ccc54)cc3)n2)cc1")
531
>>> readout_value("N#C[Se]CCCCCOc1ccc2ccc(=O)oc2c1")
396
>>> readout_value("CCN1\\C(=C/C=C/C=C/C2=[N+](CC)c3ccc4cc(Br)ccc4c3C2(C)C)C(C)(C)c2c1ccc1cc(Br)ccc21")
705
>>> readout_value("CCCCOc1ccc(-c2cc3c(o2)c(-c2ccc(OCCCC)cc2)c2n3[B-](F)(F)[N+]3=Cc4c(-c5ccc(OCCCC)cc5)c5oc(-c6ccc(OCCCC)cc6)cc5n4[B-](F)(F)[N+]3=C2)cc1")
667
>>> readout_value("FC(F)(F)c1ccc(/C=C/c2ccc(-c3nnc(-c4ccc(-c5cc6ccccc6s5)cc4)o3)cc2)cc1")
416

====

- Procedure details: solvent given as SMILES
- Test parameters: in Cc1ccccc1
Measure name: emission maximum (nm)

>>> readout_value("c1ccc(-n2c(-c3cccc4ccccc34)nc3c4ccccc4c4ccccc4c32)cc1")
410
>>> readout_value("CN(C)c1ccc(/C=C/C(=O)c2ccc(Cl)cc2)cc1")
486
>>> readout_value("Cc1cc(C)c(-c2nnc(-c3ccc(-n4c5ccccc5c5ccccc54)cc3)o2)c(C)c1")
379
>>> readout_value("CCCCCCCCCCCCC(CCCCCCCCCC)Cn1c2cc(/C=C/C=C(C#N)C#N)c3cccc4c5cccc6c(/C=C/C=C(C#N)C#N)cc1c(c65)c2c34 (stereo not drawn)")
668
>>> readout_value("COc1ccc2oc(-c3cc4cc(OC)ccc4oc3=O)cc2c1")
446
>>> readout_value("CC1(C)c2ccccc2N(c2ccc3c(c2)c2cc(N4c5ccccc5C(C)(C)c5ccccc54)cc4c5ccccc5n3c42)c2ccccc21")
449
>>> readout_value("CN1CCN(c2ccc3c4c(cccc24)C(=O)c2ccccc2-3)CC1")
569
>>> readout_value("CCN(CC)c1ccc(-c2nc3c(c4c2-c2ccccc2CC4)-c2ccccc2CC3)cc1")
437
>>> readout_value("CC1(C)c2ccccc2N(c2ccc(-c3nc4cc(C#N)c(C#N)cc4nc3-c3ccc(N4c5ccccc5C(C)(C)c5ccccc54)cc3)cc2)c2ccccc21")
620
>>> readout_value("Cc1ccc(-n2c(-c3cccc4cc[nH]c34)nc3c4ccccc4c4ccccc4c32)cc1")
377
>>> readout_value("CCCC1=Cc2nc1ccc1[nH]c(cc1CCC)c1nc(c(OC(=O)CCCC(=O)OC(C)(C)C)cc3[nH]c2cc3CCC)C(CCC)=C1")
651
>>> readout_value("CCN(CC)c1ccc2nc3c4ccccc4c(=O)cc-3oc2c1")
572
>>> readout_value("CCCCCCN(CCCCCC)c1ccc(C#Cc2ccc(C#Cc3ccc(-c4ccc(C#Cc5ccc(C#Cc6ccc(N(CCCCCC)CCCCCC)cc6)cc5)cc4)cc3)cc2)cc1")
433
>>> readout_value("O=Cc1nc2ccc(C#Cc3ccc(N(c4ccccc4)c4ccccc4)cc3)cc2s1")
519
>>> readout_value("COc1cc(/C=C/c2ccncc2)c(OC)cc1C=O")
446
>>> readout_value("O=P1(c2ccccc2)c2ccc(N3c4ccccc4Sc4ccccc43)cc2-c2cc(N3c4ccccc4Sc4ccccc43)ccc21")
559
>>> readout_value("CCN(CC)c1ccc(-c2ccc(-c3nc4ccccc4c(=O)[nH]3)s2)cc1")
490
>>> readout_value("CCN1/C(=C\\c2c(-c3ccc(N(C)C)cc3)c(=O)c2=O)C=Cc2ccccc21")
434

====

emission maximum values, listed per item
- Procedure details: solvent given as SMILES
- Test parameters: in CCO
Measure name: emission maximum (nm)

>>> readout_value("CC1(C)C(/C=C/c2cc3ccc(O)cc3oc2=O)=[N+](CCCS(=O)(=O)[O-])c2ccc3c(S(=O)(=O)O)cc(S(=O)(=O)O)cc3c21")
659
>>> readout_value("COc1cccc(OC)c1-c1c2ccc(=[N+]3CCNCC3)cc-2oc2cc(N3CCNCC3)ccc12")
582
>>> readout_value("CCN1\\C(=C/C=C/C=C/C2=[N+](CC)c3ccc4cc(Br)ccc4c3C2(C)C)C(C)(C)c2c1ccc1cc(Br)ccc21")
705
>>> readout_value("CC[N+](CC)=c1ccc2cc3oc4cc(N)ccc4c3oc-2c1")
629
>>> readout_value("N#Cc1ccc(-c2ccc(C3=CCCCC3)s2)s1")
436
>>> readout_value("CCOC(=O)c1ccccc1-c1c2ccc(=[N+](CC)CC)cc-2oc2c1c(=O)oc1cc(N(CC)CC)ccc12")
642
>>> readout_value("CC(C)n1c2cc(O)c(F)cc2c(=O)c2cc(F)c(O)cc21")
438
>>> readout_value("Cc1ccc(C2=C3C=C(I)C=[N+]3[B-](F)(F)n3c2cc(I)c3I)cc1")
582
>>> readout_value("c1ccc(N(c2ccccc2)c2ccccc2)cc1")
353
>>> readout_value("c1ccc(-c2ccc(-c3ccccc3)cc2)cc1")
375
>>> readout_value("O=c1[nH]c2ccccc2[nH]1")
310
>>> readout_value("CCOC(=O)c1cc(C(=O)OCC)c2cc(O)ccc2n1")
466
>>> readout_value("COc1ccc(C2CC(c3ccc(O)cc3)=NN2c2ccc(S(N)(=O)=O)cc2)cc1 (stereo not given)")
429
>>> readout_value("COc1c2ccccc2c(-c2ccccc2)c2ccccc12")
426
>>> readout_value("CC(C)(C)c1cc(C(C)(C)C)c(-c2nnc(-c3ccc(-n4c5ccccc5c5ccccc54)cc3)o2)c(C(C)(C)C)c1")
432
>>> readout_value("Cc1cc(C)c(-c2nnc(-c3ccc(-n4c5ccccc5c5ccccc54)cc3)o2)c(C)c1")
435
>>> readout_value("O=C1c2ccccc2-c2ccccc21")
553
>>> readout_value("Cc1cccc2nc3c(=O)[nH]c(=O)[nH]c3nc12")
465
>>> readout_value("c1ccc(-c2oc(-c3ccccc3)c3ccccc23)cc1")
451
>>> readout_value("Cc1cc2nc3cc(C)c(N)cc3[n+](-c3ccccc3)c2cc1N")
564
>>> readout_value("ClC(Cl)=C1c2ccccc2C(C2(Cl)c3ccccc3C(=C(Cl)Cl)c3ccccc32)c2ccccc21 (stereo not given)")
447.14
>>> readout_value("c1cc(N2CCCC2)ccn1")
313
>>> readout_value("N#Cc1ccc(-c2ccc(C3=CCC(c4ccccc4)CC3)s2)s1 (stereo not given)")
444
>>> readout_value("COc1ccc([C@@H]2C[C@](O)(c3ccccn3)C[C@](O)(c3ccccn3)[C@H]2C(=O)c2ccc(N(c3ccccc3)c3ccccc3)cc2)cc1")
504
>>> readout_value("Nc1cc2nc3cc(F)c(F)cc3nc2cc1N")
537
>>> readout_value("CC1(C)C(/C=C/C=C/c2cc3ccc(O)cc3oc2=O)=[N+](CCCS(=O)(=O)[O-])c2ccc(S(=O)(=O)O)cc21")
654
>>> readout_value("CSc1sc(C(N)=O)c2nnn(C)c(=O)c12")
519
>>> readout_value("Cc1ccc(C#Cc2ccc3ccc4cccc5ccc2c3c45)cc1")
391
>>> readout_value("O=Cc1ccc(-c2ccc(C3=CCC(c4ccccc4)CC3)s2)s1 (stereo not given)")
498
>>> readout_value("CCN(C(C)=O)c1cc2c(cc1C)C(c1ccccc1C(=O)O)=C1CCCC(/C=C/C3=[N+](C)c4ccc5ccccc5c4C3(C)C)=C1O2")
715

// provenance: the Deep4Chem optical property database
